- Test system: histone modifications in 2102EP cells
- Experiment: Mass spectrometry analysis of histone modifications (Mod Spec)
- Type: cell-based, Human
- Condition Summary: 2102EP cells; Mod Spec raw data
Experimental Endpoint: H3.3: K36ME1, % of peptide pool (%)

- Compound String: "Cc1ncsc1-c1ccc(CNC(=O)[C@@H]2C[C@@H](O)CN2C(=O)[C@@H](NC(=O)COCCOCCOCCNC(=O)C[C@@H]2N=C(c3ccc(Cl)cc3)c3c(sc(C)c3C)-n3c(C)nnc32)C(C)(C)C)cc1"
  U: "%"
  Quantitative Result: 12.2128
- Compound String: "Clc1ccc(N/N=C(\\c2ccccc2)c2ccccn2)nc1"
  U: "%"
  Quantitative Result: 11.4367
- Compound String: "Cc1cc(=O)n(C)c2cc(N3C(=O)CC[C@H](NS(=O)(=O)CC(C)C)[C@H]3c3ccc(Cl)cc3)ccc12"
  U: "%"
  Quantitative Result: 13.5047

----------
- System: JAR (CC)
- Experiment: XTT cell viability assay, JAR
- Assay type: cell-based
- Condition Summary: Homo sapiens, after 48 h, n = 4, read-out: EC50 colour/symbol code, CC JAR
Below is a list of entries, each paired with its recorded EC50 value.

- Compound: "Cn1cc(CNCC2CCN(c3ncc(C(=O)NO)cn3)CC2)c2ccccc21"
  EC50: "< 1 µM"
- Compound: "CCCc1cc(C)[nH]c(=O)c1CNC(=O)c1cc(-c2ccnc(N3CCN(C)CC3)c2)cc2c1cnn2C(C)C"
  EC50: "1 to 50 µM"
- Compound: "O=C(O)C1=CC(=C(c2ccc(O)c(C(=O)O)c2)c2ccc(O)c(C(=O)O)c2)C=CC1=O"
  EC50: "> 50 µM"
- Compound: "COc1cc(-c2cn(C)c(=O)c3cnccc23)cc(OC)c1CN1CCN(CCCCCOc2cc(-c3scnc3C)ccc2CNC(=O)[C@@H]2C[C@@H](O)CN2C(=O)[C@@H](NC(=O)C2(F)CC2)C(C)(C)C)CC1"
  EC50: "1 to 50 µM"
- Compound: "COc1cc(-c2cn(C)c(=O)c3cnccc23)c(OC)cc1CN(C)C"
  EC50: "> 50 µM"
- Compound: "CN1C(=O)[C@@]23C[C@]4([C@]56C[C@@]78SS[C@@](CO)(C(=O)N7[C@H]5Nc5ccccc56)N(C)C8=O)c5ccccc5N[C@@H]4N2C(=O)[C@]1(CO)SS3"
  EC50: "< 1 µM"
- Compound: "O=C(O)c1ccc(CN2CCC(CN[C@@H]3C[C@H]3c3ccccc3)CC2)cc1"
  EC50: "> 50 µM"
- Compound: "NC(=O)c1cccnc1 [Nicotinamide]"
  EC50: "> 50 µM"
- Compound: "CN(C)NC(=O)CCC(=O)O [Daminozide]"
  EC50: "> 50 µM"

----------
- Test system: histone modifications in 2102EP cells
- Experiment: Mass spectrometry analysis of histone modifications (Mod Spec)
- Type: cell-based, Human
- Condition Summary: 2102EP cells; Mod Spec raw data
Experimental Endpoint: H2A: K9UN, % of peptide pool (%)

- Compound: "CN1C(=O)[C@@]23C[C@]4([C@]56C[C@@]78SS[C@@](CO)(C(=O)N7[C@H]5Nc5ccccc56)N(C)C8=O)c5ccccc5N[C@@H]4N2C(=O)[C@]1(CO)SS3 [Chaetocin]"
  System Under Test: "histone modifications in 2102EP cells"
  Quantitative Result: 98.3248
- Compound: "Cn1cc(CNCC2CCN(c3ncc(C(=O)NO)cn3)CC2)c2ccccc21 [Quisinostat]"
  System Under Test: "histone modifications in 2102EP cells"
  Quantitative Result: 95.2735
- Compound: "Clc1ccc(N/N=C(\\c2ccccc2)c2ccccn2)nc1 [JIB-04]"
  System Under Test: "histone modifications in 2102EP cells"
  Quantitative Result: 97.3916
- Compound: "CCCc1cc(C)[nH]c(=O)c1CNC(=O)c1cc(-c2ccnc(N3CCN(C)CC3)c2)cc2c1cnn2C(C)C [GSK343]"
  System Under Test: "histone modifications in 2102EP cells"
  Quantitative Result: 98.3613

----------
Below is a list of entries, each paired with its recorded pEC50 value.
- Test system: 2102EP (EC)
- Experiment: XTT cell viability assay, 2102EP
- Assay type: cell-based
- Condition Summary: Homo sapiens; after 48 h, XTT, n = 4; read-out: EC50 colour/symbol code, EC 2102EP
pEC50: −log10 of the molar value.
Experimental Endpoint: pEC50

- Compound: "O=C(O)c1ccc(CN2CCC(CN[C@@H]3C[C@H]3c3ccccc3)CC2)cc1"
  Experimental Endpoint: "pEC50"
  Result: "< 4.30"
- Compound: "Cn1cc(CNCC2CCN(c3ncc(C(=O)NO)cn3)CC2)c2ccccc21"
  Experimental Endpoint: "pEC50"
  Result: "> 6.00"
- Compound: "COc1cc(-c2cn(C)c(=O)c3cnccc23)c(OC)cc1CN(C)C"
  Experimental Endpoint: "pEC50"
  Result: "< 4.30"
- Compound: "NC(=O)c1cccnc1 [Nicotinamide]"
  Experimental Endpoint: "pEC50"
  Result: "< 4.30"
- Compound: "O=C(O)C1=CC(=C(c2ccc(O)c(C(=O)O)c2)c2ccc(O)c(C(=O)O)c2)C=CC1=O"
  Experimental Endpoint: "pEC50"
  Result: "< 4.30"
- Compound: "COc1cc(-c2cn(C)c(=O)c3cnccc23)cc(OC)c1CN1CCN(CCCCCOc2cc(-c3scnc3C)ccc2CNC(=O)[C@@H]2C[C@@H](O)CN2C(=O)[C@@H](NC(=O)C2(F)CC2)C(C)(C)C)CC1"
  Experimental Endpoint: "pEC50"
  Result: "4.30 to 6.00"
- Compound: "CCCc1cc(C)[nH]c(=O)c1CNC(=O)c1cc(-c2ccnc(N3CCN(C)CC3)c2)cc2c1cnn2C(C)C"
  Experimental Endpoint: "pEC50"
  Result: "4.30 to 6.00"

----------
- Test system: histone modifications in 2102EP cells
- Experiment: Mass spectrometry analysis of histone modifications (Mod Spec)
- Format: cell-based, Human
- Condition Summary: 2102EP cells; Mod Spec raw data
Below is a list of entries, each paired with its recorded H3.3: K36ME1, % of peptide pool value.
Experimental Endpoint: H3.3: K36ME1, % of peptide pool (%)

- Compound String: "CN1C(=O)[C@@]23C[C@]4([C@]56C[C@@]78SS[C@@](CO)(C(=O)N7[C@H]5Nc5ccccc56)N(C)C8=O)c5ccccc5N[C@@H]4N2C(=O)[C@]1(CO)SS3"
  Experimental Endpoint: "H3.3: K36ME1, % of peptide pool"
  U: "%"
  Quantitative Result: 13.4078
- Compound String: "Cn1cc(CNCC2CCN(c3ncc(C(=O)NO)cn3)CC2)c2ccccc21"
  Experimental Endpoint: "H3.3: K36ME1, % of peptide pool"
  U: "%"
  Quantitative Result: 9.936
- Compound String: "O=C1C(=Cc2cccnc2)C(=O)c2ccccc21"
  Experimental Endpoint: "H3.3: K36ME1, % of peptide pool"
  U: "%"
  Quantitative Result: 13.3786
- Compound String: "CCCc1cc(C)[nH]c(=O)c1CNC(=O)c1cc(-c2ccnc(N3CCN(C)CC3)c2)cc2c1cnn2C(C)C"
  Experimental Endpoint: "H3.3: K36ME1, % of peptide pool"
  U: "%"
  Quantitative Result: 12.2658

----------
Below is a list of entries, each paired with its recorded H3: K122AC, % of peptide pool value.
- Test system: histone modifications in 2102EP cells
- Experiment: Mass spectrometry analysis of histone modifications (Mod Spec)
- Assay type: cell-based, Human
- Condition Summary: 2102EP cells; Mod Spec raw data
Experimental Endpoint: H3: K122AC, % of peptide pool

- Compound: "Clc1ccc(N/N=C(\\c2ccccc2)c2ccccn2)nc1 [JIB-04]"
  Result: "0.03356%"
- Compound: "Cc1ncsc1-c1ccc(CNC(=O)[C@@H]2C[C@@H](O)CN2C(=O)[C@@H](NC(=O)COCCOCCOCCNC(=O)C[C@@H]2N=C(c3ccc(Cl)cc3)c3c(sc(C)c3C)-n3c(C)nnc32)C(C)(C)C)cc1 [MZ-1]"
  Result: "0.03608%"
- Compound: "CN1C(=O)[C@@]23C[C@]4([C@]56C[C@@]78SS[C@@](CO)(C(=O)N7[C@H]5Nc5ccccc56)N(C)C8=O)c5ccccc5N[C@@H]4N2C(=O)[C@]1(CO)SS3 [Chaetocin]"
  Result: "0.1813%"
- Compound: "Cc1cc(=O)n(C)c2cc(N3C(=O)CC[C@H](NS(=O)(=O)CC(C)C)[C@H]3c3ccc(Cl)cc3)ccc12 [LP99]"
  Result: "0.1106%"
- Compound: "Cn1cc(CNCC2CCN(c3ncc(C(=O)NO)cn3)CC2)c2ccccc21 [Quisinostat]"
  Result: "0.1638%"
- Compound: "O=C1C(=Cc2cccnc2)C(=O)c2ccccc21 [PRT4165]"
  Result: "0.1739%"
- Compound: "CCCc1cc(C)[nH]c(=O)c1CNC(=O)c1cc(-c2ccnc(N3CCN(C)CC3)c2)cc2c1cnn2C(C)C [GSK343]"
  Result: "0.136%"
